Hello, the source for this data is patent US20240270821A1, in case you need it.

molecular target: human GLP-1R (SNAP-GLP-1R expressed in HEK293 cells) (human) (UniProt P43220); experiment: cell-based or functional assay
Sequence (P43220 24-463): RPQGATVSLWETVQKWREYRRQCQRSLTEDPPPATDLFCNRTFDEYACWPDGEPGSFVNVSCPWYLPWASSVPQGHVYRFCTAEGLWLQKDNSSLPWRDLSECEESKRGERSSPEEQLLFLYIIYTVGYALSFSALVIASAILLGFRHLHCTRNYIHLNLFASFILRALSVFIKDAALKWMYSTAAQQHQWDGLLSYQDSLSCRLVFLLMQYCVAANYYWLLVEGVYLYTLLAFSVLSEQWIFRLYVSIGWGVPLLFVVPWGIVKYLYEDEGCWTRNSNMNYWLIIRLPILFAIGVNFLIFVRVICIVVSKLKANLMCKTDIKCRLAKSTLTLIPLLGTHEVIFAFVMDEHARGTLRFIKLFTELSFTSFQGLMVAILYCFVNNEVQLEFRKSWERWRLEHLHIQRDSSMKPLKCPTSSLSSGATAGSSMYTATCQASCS

>  <binder>
YXQGTFTSDFSXXLDKKAQXAFIEWLLEGGTSSGAPPPSGE (synthetic construct; SITE 2: note = 2-Aminoisobutyric Acid; SITE 12: note = L-ornithine; SITE 13: note = alpha-methyl-leucine; SITE 17: note = Lysine is chemically modified through conjugation of the epsilon-amino group of the Lysine side chain with (2-[2-(2-Amino-ethoxy)-ethoxy]-acetyl)-(gamma-Glu)) [Example 175]

>  <units text>
%

>  <Internalization % TOP>
49.2

$$$$
>  <binder>
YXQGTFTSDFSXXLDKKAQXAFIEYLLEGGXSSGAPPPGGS (synthetic construct; SITE 2: note = 2-Aminoisobutyric Acid; SITE 12: note = L-ornithine; SITE 13: note = alpha-methyl-leucine; SITE 17: note = Lysine is chemically modified through conjugation of the epsilon-amino group of the Lysine side chain with (2-[2-(2-Amino-ethoxy)-ethoxy]-acetyl)-(gamma-Glu)) [Example 163]

>  <units text>
%

>  <Internalization % TOP>
37.8

$$$$
>  <binder>
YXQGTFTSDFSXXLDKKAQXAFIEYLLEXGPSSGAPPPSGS (synthetic construct; SITE 2: note = 2-Aminoisobutyric Acid; SITE 12: note = L-ornithine; SITE 13: note = alpha-methyl-leucine; SITE 17: note = Lysine is chemically modified through conjugation of the epsilon-amino group of the Lysine side chain with (2-[2-(2-Amino-ethoxy)-ethoxy]-acetyl)-(gamma-Glu)) [Example 192]

>  <units text>
%

>  <Internalization % TOP>
48.7

$$$$
>  <binder>
YXQGTFTSDFSXXLDKKAQXAFIEYLLEAGPSSGEPPPSGQ (synthetic construct; SITE 2: note = 2-Aminoisobutyric Acid; SITE 12: note = L-ornithine; SITE 13: note = alpha-methyl-leucine; SITE 17: note = Lysine is chemically modified through conjugation of the epsilon-amino group of the Lysine side chain with (2-[2-(2-Amino-ethoxy)-ethoxy]-acetyl)2-(gamma-Glu)) [Example 157]

>  <units text>
%

>  <Internalization % TOP>
53.3

$$$$
>  <binder>
YXQGTFTSDFSXXLDKKAQXAFIEYLLEAGPSSGAPPPSGS (synthetic construct; SITE 2: note = 2-Aminoisobutyric Acid; SITE 12: note = L-ornithine; SITE 13: note = alpha-methyl-leucine; SITE 17: note = Lysine is chemically modified through conjugation of the epsilon-amino group of the Lysine side chain with (2-[2-(2-Amino-ethoxy)-ethoxy]-acetyl)-(gamma-Glu)) [Example 209]

>  <units text>
%

>  <Internalization % TOP>
41.2

$$$$
>  <binder>
YXQGTFTSDXSQXLDKKAQXAFIEYLIEXGESSGAPPPSGS (synthetic construct; SITE 2: note = 2-Aminoisobutyric Acid; SITE 10: note = 3-(4-Pyridyl)-L-alanine; SITE 13: note = alpha-methyl-leucine; SITE 17: note = Lysine is chemically modified through conjugation of the epsilon-amino group of the Lysine side chain with (2-[2-(2-Amino-ethoxy)-ethoxy]-acetyl)) [Example 226]

>  <units text>
%

>  <Internalization % TOP>
59.3

$$$$
>  <binder>
YXQGTFTSDFSXXLDKKAQXAFIEYLLEXGPSSGXPPPSGS (synthetic construct; SITE 2: note = 2-Aminoisobutyric Acid; SITE 12: note = L-ornithine; SITE 13: note = alpha-methyl-leucine; SITE 17: note = Lysine is chemically modified through conjugation of the epsilon-amino group of the Lysine side chain with (2-[2-(2-Amino-ethoxy)-ethoxy]-acetyl)-(gamma-Glu)) [Example 239]

>  <units text>
%

>  <Internalization % TOP>
42.9

$$$$
>  <binder>
YXQGTFTSDXSRXLDKKAQXAFIEYLLEXGPSSGAPPPSGE (synthetic construct; SITE 2: note = 2-Aminoisobutyric Acid; SITE 10: note = 3-(4-Pyridyl)-L-alanine; SITE 13: note = alpha-methyl-leucine; SITE 17: note = Lysine is chemically modified through conjugation of the epsilon-amino group of the Lysine side chain with (2-[2-(2-Amino-ethoxy)-ethoxy]-acetyl)) [Example 114]

>  <units text>
%

>  <Internalization % TOP>
62.9

$$$$
>  <binder>
YXQGTFTSDFSXXLDKKAQXAFIEYLLEAGPSSXAPPPSGT (synthetic construct; SITE 2: note = 2-Aminoisobutyric Acid; SITE 12: note = L-ornithine; SITE 13: note = alpha-methyl-leucine; SITE 17: note = Lysine is chemically modified through conjugation of the epsilon-amino group of the Lysine side chain with (2-[2-(2-Amino-ethoxy)-ethoxy]-acetyl)-(gamma-Glu)) [Example 214]

>  <units text>
%

>  <Internalization % TOP>
41.7

$$$$
>  <binder>
YXQGTFTSDFSRXLDKKAQXAFIEYLIEXGESSGAPPPSGE (synthetic construct; SITE 2: note = 2-Aminoisobutyric Acid; SITE 13: note = alpha-methyl-leucine; SITE 17: note = Lysine is chemically modified through conjugation of the epsilon-amino group of the Lysine side chain with (2-[2-(2-Amino-ethoxy)-ethoxy]-acetyl)-(gamma-Glu)-CO-(CH2) 16-CO2H; SITE 20: n) [Example 231]

>  <units text>
%

>  <Internalization % TOP>
27.7

$$$$
>  <binder>
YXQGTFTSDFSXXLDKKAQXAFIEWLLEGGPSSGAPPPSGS (synthetic construct; SITE 2: note = 2-Aminoisobutyric Acid; SITE 12: note = L-ornithine; SITE 13: note = alpha-methyl-leucine; SITE 17: note = Lysine is chemically modified through conjugation of the epsilon-amino group of the Lysine side chain with (2-[2-(2-Amino-ethoxy)-ethoxy]-acetyl)-(gamma-Glu)) [Example 168]

>  <units text>
%

>  <Internalization % TOP>
38.7

$$$$
>  <binder>
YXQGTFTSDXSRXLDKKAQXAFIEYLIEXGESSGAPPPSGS (synthetic construct; SITE 2: note = 2-Aminoisobutyric Acid; SITE 10: note = 3-(4-Pyridyl)-L-alanine; SITE 13: note = alpha-methyl-leucine; SITE 17: note = Lysine is chemically modified through conjugation of the epsilon-amino group of the Lysine side chain with (2-[2-(2-Amino-ethoxy)-ethoxy]-acetyl)) [Example 224]

>  <units text>
%

>  <Internalization % TOP>
61.9

$$$$
>  <binder>
YXQGTFTSDXSKXLDKKAQXAFIEYLIEXGESSGEPPPSGS (synthetic construct; SITE 2: note = 2-Aminoisobutyric Acid; SITE 10: note = 3-(4-Pyridyl)-L-alanine; SITE 13: note = alpha-methyl-leucine; SITE 17: note = Lysine is chemically modified through conjugation of the epsilon-amino group of the Lysine side chain with (2-[2-(2-Amino-ethoxy)-ethoxy]-acetyl)) [Example 282]

>  <units text>
%

>  <Internalization % TOP>
71.9

$$$$
>  <binder>
YXQGTFTSDFSXXLDKKAQXAFIEWLLEGGPSSGAPPPTGS (synthetic construct; SITE 2: note = 2-Aminoisobutyric Acid; SITE 12: note = L-ornithine; SITE 13: note = alpha-methyl-leucine; SITE 17: note = Lysine is chemically modified through conjugation of the epsilon-amino group of the Lysine side chain with (2-[2-(2-Amino-ethoxy)-ethoxy]-acetyl)-(gamma-Glu)) [Example 250]

>  <units text>
%

>  <Internalization % TOP>
45

$$$$
